Documented pEC50 across a set of molecules
Tested target: GLP-1R (Homo sapiens)
Construct: host or cells: GLP-1R CRE-bla CHO-K1 cells
Sequence (P43220 24-463): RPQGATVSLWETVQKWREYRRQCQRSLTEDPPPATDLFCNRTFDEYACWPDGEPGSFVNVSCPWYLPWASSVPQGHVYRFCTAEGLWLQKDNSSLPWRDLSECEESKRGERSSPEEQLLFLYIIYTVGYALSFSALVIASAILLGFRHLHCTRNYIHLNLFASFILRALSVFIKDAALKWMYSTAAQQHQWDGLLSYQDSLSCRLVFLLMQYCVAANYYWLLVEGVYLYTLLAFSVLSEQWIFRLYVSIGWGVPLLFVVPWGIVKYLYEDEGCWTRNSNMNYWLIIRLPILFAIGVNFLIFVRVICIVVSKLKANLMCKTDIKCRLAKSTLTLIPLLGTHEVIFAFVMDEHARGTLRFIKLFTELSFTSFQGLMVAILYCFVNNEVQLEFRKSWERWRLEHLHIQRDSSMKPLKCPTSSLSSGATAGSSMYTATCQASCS
Sequence (P01275 100-127 partner limits assumed): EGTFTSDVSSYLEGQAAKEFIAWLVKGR
Test: EC20 GLP-1(9-36) PAM cAMP assay: dose response of compound in the presence of fixed concentration of GLP-1(9-36)
Type: cell-based
Measurement parameters: dose response of compound in presence of fixed concentration of GLP-1(9-36), GLP-1R CRE-bla CHO-K1 cells, read-out: EC20 GLP-1(9-36) PAM EC50
pEC50: −log10 of the molar value.

[
  {
    "Molecule": "CCCCCCCOc1ccc(-c2cnc(-c3ccc(C[C@H](NC(=O)c4ccc(C(C)(C)C)c(OC)c4)C(=O)N[C@H](C)C(=O)O)cc3)nc2)cc1",
    "pEC50": "> 6.10"
  },
  {
    "Molecule": "CCCCCCCOc1ccc(-c2cnc(-c3ccc(C[C@H](NC(=O)c4ccc(C(C)(C)C)s4)C(=O)N4CCC[C@H]4C(=O)NS(C)(=O)=O)cc3)nc2)cc1",
    "pEC50": "> 6.10"
  },
  {
    "Molecule": "CCCCCCCOc1ccc(-c2cnc(-c3ccc(C[C@H](NC(=O)c4ccc(C(C)(C)C)s4)C(=O)NC(C(=O)O)C(O)c4cncnc4)cc3)nc2)cc1 (some centres unmarked)",
    "pEC50": "5.30 to 5.60"
  },
  {
    "Molecule": "CCCCCCCOc1ccc(-c2cnc(-c3ccc(C[C@H](NC(=O)c4ccc(C(C)(C)C)cc4)C(=O)N[C@H](CCN)C(=O)O)cc3)nc2)cc1",
    "pEC50": "5.30 to 5.60"
  },
  {
    "Molecule": "CCCCCCCOc1ccc(-c2cnc(-c3ccc(C[C@H](NC(=O)c4ccc(C(C)(C)C)s4)C(=O)N4CCC[C@H]4C(=O)NS(=O)(=O)CC(=O)OC)cc3)nc2)cc1",
    "pEC50": "> 6.10"
  },
  {
    "Molecule": "CCCCCCCOc1ccc(-c2cnc(-c3ccc(C[C@H](NC(=O)c4ccc(C(C)(C)C)cc4)C(=O)NC(CO)CC(=O)O)cc3)nc2)cc1 (some centres unmarked)",
    "pEC50": "5.60 to 6.10"
  },
  {
    "Molecule": "CCCCCCCOc1ccc(-c2cnc(-c3ccc(C[C@H](NC(=O)c4ccc(C(C)(C)C)cc4)C(=O)N[C@@H](CCCCN)C(=O)O)cc3)nc2)cc1",
    "pEC50": "5.00 to 5.30"
  },
  {
    "Molecule": "CCCCCCCOc1ccc(-c2cnc(-c3ccc(C[C@H](NC(=O)c4ccc(C(C)(C)C)cc4)C(=O)NC(C(=O)O)c4ccc(C)cc4)cc3)nc2)cc1 (some centres unmarked)",
    "pEC50": "5.60 to 6.10"
  },
  {
    "Molecule": "CCCCCCCOc1ccc(-c2cnc(-c3ccc(C[C@H](NC(=O)c4ccc(C(C)(C)C)s4)C(=O)NC(C(=O)O)C(O)c4ccc(C)cc4)cc3)nc2)cc1 (some centres unmarked)",
    "pEC50": "5.60 to 6.10"
  },
  {
    "Molecule": "CCCCCCCOc1ccc(-c2cnc(-c3ccc(C[C@H](NC(=O)c4ccc(C5CC5)cc4)C(=O)N4CC(C(=O)O)C4)cc3)nc2)cc1",
    "pEC50": "5.60 to 6.10"
  },
  {
    "Molecule": "CCCCCCCOc1ccc(-c2cnc(-c3ccc(C[C@H](NC(=O)c4ccc(CC)s4)C(=O)N[C@H](C)C(=O)O)cc3)nc2)cc1",
    "pEC50": "5.60 to 6.10"
  },
  {
    "Molecule": "CCCCCCCOc1ccc(-c2cnc(-c3ccc(C[C@H](NC(=O)c4ccc(C(C)(C)C)s4)C(=O)NC(Cc4nccs4)C(=O)O)cc3)nc2)cc1 (some centres unmarked)",
    "pEC50": "5.60 to 6.10"
  },
  {
    "Molecule": "CCCCCCCOc1ccc(-c2cnc(-c3ccc(C[C@H](NC(=O)c4ccc(C(C)(C)C)cc4)C(=O)NC(CC)C(=O)O)cc3)nc2)cc1 (some centres unmarked)",
    "pEC50": "> 6.10"
  },
  {
    "Molecule": "CCCCCCOc1ccc(-c2cnc(-c3ccc(C[C@H](NC(=O)c4ccc(C(C)(C)C)s4)C(=O)N[C@H](C)C(=O)O)cc3)nc2)cc1",
    "pEC50": "5.60 to 6.10"
  },
  {
    "Molecule": "CCCCCC(=O)c1ccc(-c2cnc(-c3ccc(C[C@H](NC(=O)c4ccc(C(C)(C)C)cc4)C(=O)N[C@H](C)C(=O)O)cc3)nc2)cc1",
    "pEC50": "5.60 to 6.10"
  },
  {
    "Molecule": "CCCCCCCOc1ccc(-c2cnc(-c3ccc(C[C@H](NC(=O)c4ccc(C(C)(C)C)s4)C(=O)N[C@H](CC(=O)NC)C(=O)O)cc3)nc2)cc1",
    "pEC50": "5.60 to 6.10"
  },
  {
    "Molecule": "CCCCCCCOc1ccc(-c2cnc(-c3ccc(C[C@H](NC(=O)c4ccc(C(C)(C)C)s4)C(=O)N4CC(c5nn[nH]n5)C4)cc3)nc2)cc1",
    "pEC50": "5.60 to 6.10"
  },
  {
    "Molecule": "CCCCCCCOc1ccc(-c2cnc(-c3ccc(C[C@H](NC(=O)c4cccc(C(C)(C)C)c4)C(=O)N4CC(C(=O)O)C4)cc3)nc2)cc1",
    "pEC50": "5.00 to 5.30"
  },
  {
    "Molecule": "CCCCCCCOc1ccc(-c2cnc(-c3ccc(C[C@H](NC(=O)c4ccc(C(C)(C)C)cc4)C(=O)N[C@@H](CCN)C(=O)O)cc3)nc2)cc1",
    "pEC50": "5.60 to 6.10"
  },
  {
    "Molecule": "CCCCCCCOc1ccc(-c2cnc(-c3ccc(C[C@H](NC(=O)c4ccc(C(C)(C)C)cc4)C(=O)N[C@H](CCCNC(=O)OCc4ccccc4)C(=O)O)cc3)nc2)cc1",
    "pEC50": "5.30 to 5.60"
  },
  {
    "Molecule": "CCCCc1ccc(-c2cnc(-c3ccc(C[C@H](NC(=O)c4ccc(C(C)(C)C)cc4)C(=O)NCCC(=O)O)cc3)nc2)cc1",
    "pEC50": "5.30 to 5.60"
  },
  {
    "Molecule": "CCCCCCCOc1ccc(-c2cnc(-c3ccc(C[C@H](NC(=O)c4cc(C)cs4)C(=O)O)cc3)nc2)cc1",
    "pEC50": "> 6.10"
  },
  {
    "Molecule": "CCCCCCCOc1ccc(-c2cnc(-c3ccc(C[C@H](NC(=O)c4ccc(C(C)(C)C)s4)C(=O)NC4CCC(C(=O)O)C4)cc3)nc2)cc1 (some centres unmarked)",
    "pEC50": "5.60 to 6.10"
  }
]
